- Test system: giant foxtail (Setaria faberi)
- ASSAY: Test G Post-Emergence Protocol
- Assay type: in vivo
- TEST CONDITIONS: Setaria faberi, post-emergence, 312 h, 62.5 g ai/ha, evaluated after 13 days, read-out: Foxtail, Giant damage rating (100=total damage to plant; 0=no damage to plant)
- Description: Seeds of corn (Zea mays), giant foxtail (Setaria faberi), barnyardgrass (Echinochloa crus-galli), ivy-leaved morning glory (Ipomoea hederacea), redroot pigweed (Amaranthus retroflexus) and velvetleaf (Abutilon theophrasti) were sown in standard soil in pots. […]
RECORDED ENDPOINT: pest or weed control at 62.5 g/ha (%)
All answers are understood in %, so give the number only.

Looking up CN1C[C@@H](c2ccc(C(F)(F)F)cc2)[C@H](C(=O)Nc2cccnc2Cl)C1=O (racemic) [Compound 1517] , I see its pest or weed control at 62.5 g/ha listed as 60

Looking up Cc1nc(NC(=O)[C@@H]2C(=O)N(C)C[C@H]2c2ccc(C(F)(F)F)cc2)ccc1F (racemic) [Compound 1613] , I see its pest or weed control at 62.5 g/ha listed as 70

Looking up CN1C[C@@H](c2ccc(C(F)(F)F)nc2)[C@H](C(=O)Nc2cccc(F)n2)C1=O (racemic) [Compound 1491] , I see its pest or weed control at 62.5 g/ha listed as 20

Looking up Cc1cccc(NC(=O)[C@H]2C(=O)N(C)C[C@@H]2c2ccc(C(F)(F)F)cc2)c1C#N (racemic) [Compound 1413] , I see its pest or weed control at 62.5 g/ha listed as 70

Looking up CN1C[C@@H](c2ccc(C(F)(F)F)cc2)[C@H](C(=O)Nc2ncc(Cl)s2)C1=O (racemic) [Compound 1569] , I see its pest or weed control at 62.5 g/ha listed as 0

Looking up CN1C[C@H](c2cccc3c2OC(F)(F)O3)[C@@H](C(=O)Nc2ccccc2F)C1=O (racemic) [Compound 1465] , I see its pest or weed control at 62.5 g/ha listed as 60

Looking up COc1cccc(NC(=O)[C@H]2C(=O)N(C)C[C@@H]2c2ccc(C(F)(F)F)cc2)c1C (racemic) [Compound 1446] , I see its pest or weed control at 62.5 g/ha listed as 0

Looking up CN1C[C@@H](c2cncc(Cl)c2)[C@H](C(=O)Nc2cccc(F)c2F)C1=O (racemic) [Compound 1461] , I see its pest or weed control at 62.5 g/ha listed as 70

Looking up CN1C[C@@H](c2ccc(C(F)(F)F)cc2)[C@H](C(=O)Nc2ccc(C#N)cc2Cl)C1=O (racemic) [Compound 1620] , I see its pest or weed control at 62.5 g/ha listed as 0

Looking up Cc1ccc(NC(=O)[C@@H]2C(=O)N(C)C[C@H]2c2ccc(C(F)(F)F)cc2)c(Cl)c1 (racemic) [Compound 1590] , I see its pest or weed control at 62.5 g/ha listed as 70

Looking up Cc1n[nH]cc1NC(=O)[C@@H]1C(=O)N(C)C[C@H]1c1ccc(C(F)(F)F)cc1 (racemic) [Compound 1634] , I see its pest or weed control at 62.5 g/ha listed as 0

Looking up CN1C[C@@H](c2ccc(C(F)(F)F)cc2)[C@H](C(=O)Nc2ccsc2)C1=O (racemic) [Compound 1611] , I see its pest or weed control at 62.5 g/ha listed as 0

Looking up Cc1c(Cl)ncnc1NC(=O)[C@@H]1C(=O)N(C)C[C@H]1c1ccc(C(F)(F)F)cc1 (racemic) [Compound 1581] , I see its pest or weed control at 62.5 g/ha listed as 0

Looking up CN1C[C@@H](c2ccc(C(F)(F)F)cc2)[C@H](C(=O)Nc2cc(O)nc(C(F)(F)F)n2)C1=O (racemic) [Compound 1614] , I see its pest or weed control at 62.5 g/ha listed as 0

Looking up CN1C[C@@H](c2ccc(C(F)(F)F)cc2)[C@H](C(=O)Nc2ccn[nH]2)C1=O (racemic) [Compound 1573] , I see its pest or weed control at 62.5 g/ha listed as 0

Looking up CN1C[C@@H](c2ccc(C(F)(F)F)cc2)[C@H](C(=O)Nc2cn(C)nn2)C1=O (racemic) [Compound 1527] , I see its pest or weed control at 62.5 g/ha listed as 0

Looking up CCc1nccc(NC(=O)[C@@H]2C(=O)N(C)C[C@H]2c2ccc(C(F)(F)F)cc2)c1Cl (racemic) [Compound 1538] , I see its pest or weed control at 62.5 g/ha listed as 30

Looking up CN1C[C@@H](c2ccc(C(F)(F)F)nc2)[C@H](C(=O)Nc2ccccc2S(C)(=O)=O)C1=O (racemic) [Compound 1586] , I see its pest or weed control at 62.5 g/ha listed as 0

Looking up CN1C[C@H](c2ccc(C(F)(F)F)cc2)[C@@H](C(=O)Nc2cccc(F)n2)C1=O (racemic) [Compound 1428] , I see its pest or weed control at 62.5 g/ha listed as 50

Looking up Cc1ccc([C@@H]2CN(C)C(=O)[C@H]2C(=O)Nc2cccc(F)c2F)cc1Cl (racemic) [Compound 1475] , I see its pest or weed control at 62.5 g/ha listed as 70

Looking up COC(=O)c1nccc(NC(=O)[C@@H]2C(=O)N(C)C[C@H]2c2ccc(C(F)(F)F)cc2)n1 (racemic) [Compound 1537] , I see its pest or weed control at 62.5 g/ha listed as 0
